SYSTEM TESTED: human dopamine D2,L receptors (Homo sapiens)
Sequence (P14416 whole entry): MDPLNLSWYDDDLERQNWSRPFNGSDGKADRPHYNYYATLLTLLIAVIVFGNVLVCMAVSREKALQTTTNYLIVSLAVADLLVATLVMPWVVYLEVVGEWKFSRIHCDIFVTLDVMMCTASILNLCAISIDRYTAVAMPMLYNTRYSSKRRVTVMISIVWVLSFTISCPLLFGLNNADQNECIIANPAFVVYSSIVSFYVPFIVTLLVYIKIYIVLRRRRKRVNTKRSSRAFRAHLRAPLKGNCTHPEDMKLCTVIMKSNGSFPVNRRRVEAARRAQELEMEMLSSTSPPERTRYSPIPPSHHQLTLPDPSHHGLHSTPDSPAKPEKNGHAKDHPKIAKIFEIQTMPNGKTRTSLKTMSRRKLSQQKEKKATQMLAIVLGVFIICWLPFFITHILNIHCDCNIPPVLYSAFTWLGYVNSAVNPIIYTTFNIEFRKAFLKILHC
ASSAY METHOD TEXT: Inhibition of forskolin-induced [3H]-cAMP accumulation in CHO-K1 cells
EXPERIMENTAL SETUP: fraction of full agonism (ε = 1, quinpirole)
READOUT LABEL: cAMP accum. ε (intrinsic activity)

// lookup cAMP accum. ε (intrinsic activity) for Cc1cccc2c(CCCN3CCN(c4cccc5[nH]c(=O)oc45)CC3)c[nH]c12
0.56

// lookup cAMP accum. ε (intrinsic activity) for COCCCC/C(=N\OCCN)c1ccc(C(F)(F)F)cc1
0.10

// lookup cAMP accum. ε (intrinsic activity) for O=c1[nH]c2cccc(N3CCN(CCCc4cn5c6c(cc(F)cc46)CCC5)CC3)c2o1
0.27

// lookup cAMP accum. ε (intrinsic activity) for O=c1[nH]c2cccc(N3CCN(CCCc4c[nH]c5ccccc45)CC3)c2o1
0.60

// lookup cAMP accum. ε (intrinsic activity) for CCN(CC)C(=O)N[C@H]1C[C@@H]2c3cccc4[nH]cc(c34)C[C@H]2N(C)C1 [terguride]
0.38

[P] O=c1[nH]c2cccc(N3CCN(CCCc4c[nH]c5ccc(F)cc45)CC3)c2o1
[Q] Cn1cc(CCCN2CCN(c3cccc4[nH]c(=O)oc34)CC2)c2cc(F)ccc21
Looking only at measured cAMP accum. ε (intrinsic activity), which entry is lower, P or Q ? Provide the label of your selected option as the answer.
Q
